Numbers sourced from PubChem BioAssay (NCI).

# Tested on: SR leukemia
# EXPERIMENT SUMMARY: NCI-60 one-dose screen, 48 h
# SETUP CONDITIONS: 10 µM unless noted
Compounds without any hit were thinned out: in the full panel of roughly 83,000, 20% have a hit. Activity calls are given as the source filed them. The calls were made as follows: active = growth percent below 10; inactive = the rest.
Respond only with the outcome that fits, drawn from 1 (active), -1 (inactive)

Request: Given COc1cc2oc(-c3cccc(NC(=O)[C@H](CC(N)=O)NC(=O)OC(C)(C)C)c3)cc(=O)c2c(OC)c1OC , state the outcome it received in this test.
Response: -1

----------
# System: HS 578T breast
# EXPERIMENT SUMMARY: NCI-60 one-dose screen, 48 h (100 = growth as untreated, 0 = no growth, -100 = all killed)
# SETUP CONDITIONS: 10 µM unless noted
The panel holds about 83,000 compounds, 20% with a hit somewhere; the sample as a whole holds those more often.
Decision: growth beneath 60% gives y; growth meeting or exceeding 60% gives n.

Consider the following illustrative entries.
[
  {
    "COMPOUND": "COc1ccc2[nH]cc(-c3nnc(N)nc3-c3c[nH]c4ncc(Br)cc34)c2c1",
    "DISCRETE LABEL": "n"
  },
  {
    "COMPOUND": "COc1ccc(C(=O)/C=C/c2cccc3ccccc23)cc1S(N)(=O)=O",
    "DISCRETE LABEL": "y"
  },
  {
    "COMPOUND": "COc1ccc(-c2nc3cc(C)ccc3n2CC(=O)N=Nc2c(O)[nH]c3ccccc23)cc1",
    "DISCRETE LABEL": "y"
  },
  {
    "COMPOUND": "COc1ccc(NC(=O)[C@H](C)N)cc1C(=O)Nc1cccc(C2CC(=O)c3c(cc(OC)c(OC)c3OC)O2)c1 (stereo not given in full)",
    "DISCRETE LABEL": "n"
  },
  {
    "COMPOUND": "COc1ccc2c(c1)c(-c1cc(N)n3nc(-c4cn(C)c5ccccc45)cc3n1)cn2C",
    "DISCRETE LABEL": "y"
  }
]

Request: Problem: For the compound CCCCCCCCOc1cccc(S(=O)(=O)Nc2ccc(C)cc2C(=O)O)c1 , is growth under 60%?
Response: n

Request: Does the reported growth of C=C1CC[C@@H]2[C@]3(C)COC(c4ccco4)O[C@@H]3CC[C@@]2(C)[C@@H]1C/C=C1/C(=O)OCC1OC(C)=O (stereo not given in full) stay below 60%?
Response: n

Request: Hi there! Is growth for COc1ccc(C(=O)/C=C/c2ccc(Cl)c(Cl)c2)cc1S(N)(=O)=O below 60%, do you know?
Response: n

Request: Does Cn1cc(-c2cc3nc(-c4c[nH]c5ccc(Cl)cc45)cc(N)n3n2)c2ccccc21 have growth strictly under 60%?
Response: y

Request: Problem: For the compound COc1ccc(-c2nc(SC(C)C)nc(NCCc3c[nH]c4ccccc34)c2C#N)cc1 , is growth under 60%?
Response: y

Request: hey, is growth for O=C1N/C(=N\c2nccs2)S/C1=C\C=C/c1ccccc1 lower than 60% or not?
Response: n

Request: Does the reported growth of CN(C)c1nc(NCCNS(=O)(=O)c2ccc(C3=Nc4c(N)nc(N)nc4NC(c4ccc(Cl)cc4)C3)cc2)nc(Nc2ccc(F)cc2)n1 (stereo not given) stay below 60%?
Response: y

Request: growth strictly < 60% for this compound? CN1CCN(/C(=N\c2sc(-c3ccccc3)nc2-c2ccccc2)c2ccccc2)CC1
Response: n

Request: Check if growth falls below 60% for COc1cc2oc(-c3cccc(C(=O)Nc4ccc(Cl)cc4)c3)cc(=O)c2c(OCC(=O)N[C@@H](Cc2ccccc2)C(=O)O)c1OC .
Response: n
